# testTarget: MrgprX1 (Homo sapiens)
# Sequence (Q96LB2 whole entry): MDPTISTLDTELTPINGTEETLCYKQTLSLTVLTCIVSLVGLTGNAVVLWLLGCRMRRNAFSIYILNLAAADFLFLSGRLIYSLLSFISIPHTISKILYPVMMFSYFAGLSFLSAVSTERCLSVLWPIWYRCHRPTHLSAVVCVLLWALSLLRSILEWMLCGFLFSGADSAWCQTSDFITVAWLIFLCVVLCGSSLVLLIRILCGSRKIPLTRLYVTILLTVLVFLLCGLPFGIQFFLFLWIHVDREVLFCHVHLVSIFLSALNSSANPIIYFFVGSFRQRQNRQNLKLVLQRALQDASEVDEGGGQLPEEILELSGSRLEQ
# protocolSummary: Intracellular calcium measurement (Fluo-4 NW) in HEK293T cells expressing MrgprX1
# studyConditions: HEK-MrgprX1 cells, Fluo-4; read-out: EC50 of increase in intracellular calcium levels (MrgprX1 activation)
testReadout: pEC50
Numbers only, as −log10 of the molar value.

[in] MrgprX1 (Homo sapiens) / pEC50 / CCN(CC)CCCC(C)Nc1ccnc2cc(Cl)ccc12 (stereo not shown) : value?
[out] 4.02

----------
# testTarget: UniProt Q91WW3
# Sequence (Q91WW3 1-302): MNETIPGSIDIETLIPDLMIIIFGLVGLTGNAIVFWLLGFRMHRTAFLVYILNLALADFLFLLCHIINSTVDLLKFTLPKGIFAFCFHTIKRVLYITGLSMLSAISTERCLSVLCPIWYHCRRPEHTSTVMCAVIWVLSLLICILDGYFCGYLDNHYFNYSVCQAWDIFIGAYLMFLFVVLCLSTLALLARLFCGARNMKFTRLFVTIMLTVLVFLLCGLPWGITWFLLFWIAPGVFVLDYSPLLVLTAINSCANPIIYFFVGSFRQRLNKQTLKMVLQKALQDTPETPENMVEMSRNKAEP
# protocolSummary: Intracellular calcium measurement in HEK293T cells expressing mouse MrgprA3
# studyConditions: HEK293T cells overexpressing MrgprA3; read-out: EC50 of MrgprA3 activation
testReadout: EC50 (µM)
Numbers only, in µM.

[in] // EC50 lookup, key: CCN(CC)CCCC(C)Nc1ccnc2cc(Cl)ccc12 (stereo not shown)
[out] 234

----------
# testTarget: MrgprX1 (Homo sapiens)
# protocolSummary: Intracellular calcium measurement (Fluo-4 NW) in HEK293T cells expressing MrgprX1
# studyConditions: pretreated 10 min prior to 300 μM CQ; read-out: IC50 of inhibition of CQ-induced MrgprX1 activation
What IC50 was measured for each of the following?
Give bare numbers, in nM.

# compound, unitString, assayResult
measured = [
    ("COc1cc2c3cc1Oc1c(OC)c(OC)cc4c1[C@@H](Cc1ccc(O)c(c1)Oc1ccc(cc1)C[C@@H]3N(C)CC2)N(C)CC4 [berbamine]", "nM", 1600),
]

Okay, now this compound:
[in] MrgprX1 (Homo sapiens) / IC50 / Cc1cc(C(C#N)c2ccc(Cl)cc2)c(Cl)cc1NC(=O)c1cc(I)cc(I)c1O (centres unmarked) [closantel, reference compound] : value?
[out] 3600
